# Test system: HepG2 cells
# Assay protocol: MTT cytotoxicity test, HepG2
# Format: cell-based
# Particulars: Homo sapiens, HepG2, 72 h; MTT, 3 days; read-out: IC50 (µM) HepG2
# Experimental: All compounds were evaluated in triplicate using six points, 1/3 dilutions, with the highest concentration of 50 µM. The triplicate measurements were placed in three different 96-plates, and 1% DMSO was used as a negative control. The first sets of […] (GH38, GH18, GH27, FH38, FH18, […] and FH37) were evaluated in different cancer cell lines: HepG2, MCF-7, SH-SY5Y, MIA PaCa-2, and FH27. […]
Measure: IC50 (µM)

CCCCc1ccc(C(=O)N[C@@H](Cc2ccc([N+](=O)[O-])cc2)C(=O)NO)cc1; 15.7
CCCCc1ccc(C(=O)N[C@@H](Cc2cccc3ccccc23)C(=O)NO)cc1; 3.39
CCCCc1ccc(C(=O)N[C@@H](Cc2ccc(O)cc2)C(=O)NO)cc1; 30.9
CCCCc1ccc(C(=O)N[C@H](Cc2ccccc2)C(=O)NO)cc1; 11.6
CCCCc1ccc(C(=O)N[C@@H](Cc2ccc(F)cc2)C(=O)NO)cc1; 18
CCCCc1ccc(C(=O)N[C@@H](Cc2ccc(I)cc2)C(=O)NO)cc1; 41.1
CCCCc1ccc(C(=O)N[C@@H](Cc2ccc3ccccc3c2)C(=O)NO)cc1; 10.8

---

# Test system: MCF-7 cells
# Assay protocol: MTT cytotoxicity test, MCF-7
# Assay type: cell-based
# Particulars: Homo sapiens, MCF7, 72 h; MTT, 3 days; read-out: IC50 (µM) MCF-7
Reported IC50 is given for each of the following compounds.
Measure: IC50

CCCCc1ccc(C(=O)N[C@@H](Cc2ccc([N+](=O)[O-])cc2)C(=O)NO)cc1; 16.6 µM
CCCCc1ccc(C(=O)N[C@@H](Cc2ccc(O)cc2)C(=O)NO)cc1; 8.96 µM
CCCCc1ccc(C(=O)N[C@@H](Cc2ccc(I)cc2)C(=O)NO)cc1; > 50 µM
CCCCc1ccc(C(=O)N[C@@H](Cc2ccc3ccccc3c2)C(=O)NO)cc1; 7.27 µM
CCCCc1ccc(C(=O)N[C@@H](Cc2cccc3ccccc23)C(=O)NO)cc1; 3.41 µM
CCCCc1ccc(C(=O)N[C@H](C(=O)NO)c2ccccc2)cc1; > 50 µM
CCCCc1ccc(C(=O)N[C@H](Cc2ccccc2)C(=O)NO)cc1; 4.94 µM
CCCCc1ccc(C(=O)N[C@@H](Cc2ccc(F)cc2)C(=O)NO)cc1; 27.9 µM

---

# Test system: RCC4-VA cells
# Assay protocol: MTT cytotoxicity test, RCC4-VA
# Format: cell-based
# Particulars: 72 h, 3 days
Measure: IC50 (µM)

CCCCc1ccc(C(=O)N[C@@H](Cc2ccc([N+](=O)[O-])cc2)C(=O)NO)cc1; 10.5
CCCCc1ccc(C(=O)N[C@@H](Cc2cccc3ccccc23)C(=O)NO)cc1; 24.9
CCCCc1ccc(C(=O)N[C@@H](Cc2ccc(F)cc2)C(=O)NO)cc1; 38.9
CCCCc1ccc(C(=O)N[C@H](Cc2ccccc2)C(=O)NO)cc1; 12.9
CCCCc1ccc(C(=O)N[C@@H](Cc2ccc3ccccc3c2)C(=O)NO)cc1; 31.9

---

Recorded IC50 by entry
# Tested on: MIA PaCa-2 cells
# Assay protocol: MTT cytotoxicity test, MIA PaCa-2
# Type: cell-based
# Particulars: Homo sapiens, MIA PaCa-2, 72 h; MTT, 3 days; read-out: IC50 (µM) MIA PaCa-2
Measure: IC50

CCCCc1ccc(C(=O)N[C@@H](Cc2ccc(O)cc2)C(=O)NO)cc1 [YSL-99]; > 50 µM
CCCCc1ccc(C(=O)N[C@H](Cc2ccccc2)C(=O)NO)cc1 [YSL-106]; 21.6 µM
CCCCc1ccc(C(=O)N[C@@H](Cc2ccc3ccccc3c2)C(=O)NO)cc1 [YSL-112]; > 50 µM
CCCCc1ccc(C(=O)N[C@@H](Cc2ccc(I)cc2)C(=O)NO)cc1 [YSL-121]; > 50 µM
CCCCc1ccc(C(=O)N[C@@H](Cc2ccc(F)cc2)C(=O)NO)cc1 [YSL-116]; > 50 µM
CCCCc1ccc(C(=O)N[C@@H](Cc2cccc3ccccc23)C(=O)NO)cc1 [YSL-109]; > 50 µM
CCCCc1ccc(C(=O)N[C@@H](Cc2ccc([N+](=O)[O-])cc2)C(=O)NO)cc1 [YSL-125]; 42.5 µM
CCCCc1ccc(C(=O)N[C@H](C(=O)NO)c2ccccc2)cc1 [YSL-129]; > 50 µM

---

# Study system: HDAC8 (Homo sapiens)
# Construct: purchased Enzo Life Sciences BML-AK518
# Sequence (Q9BY41 whole entry): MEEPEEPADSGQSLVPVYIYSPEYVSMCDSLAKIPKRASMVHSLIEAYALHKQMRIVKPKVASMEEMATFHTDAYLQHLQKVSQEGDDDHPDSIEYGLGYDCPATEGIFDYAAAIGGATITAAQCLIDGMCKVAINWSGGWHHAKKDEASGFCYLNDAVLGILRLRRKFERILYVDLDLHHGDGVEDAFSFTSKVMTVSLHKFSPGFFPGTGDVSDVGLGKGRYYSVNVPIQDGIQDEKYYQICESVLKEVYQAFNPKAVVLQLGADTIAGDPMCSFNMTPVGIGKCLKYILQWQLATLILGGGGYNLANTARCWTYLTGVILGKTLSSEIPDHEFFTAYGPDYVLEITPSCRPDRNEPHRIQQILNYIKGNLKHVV
# Assay protocol: HDAC fluorometric enzymatic inhibition assay, HDAC8
# Type: biochemical
# Particulars: read-out: IC50 (nM) HDAC8
Measure: IC50

CCCCc1ccc(C(=O)N[C@@H](Cc2cccc3ccccc23)C(=O)NO)cc1; 2240 nM

---

# System: RCC4-VA cells
# Assay protocol: MTT cytotoxicity test, RCC4-VA
# Assay type: cell-based
# Particulars: 72 h, 3 days
Measure: IC50

CCCCc1ccc(C(=O)N[C@H](C(=O)NO)c2ccccc2)cc1; > 50 µM
CCCCc1ccc(C(=O)N[C@@H](Cc2ccc(O)cc2)C(=O)NO)cc1; > 50 µM
CCCCc1ccc(C(=O)N[C@@H](Cc2ccc(I)cc2)C(=O)NO)cc1; > 50 µM
